Molecular target: Muscarinic acetylcholine receptor M4 (Homo sapiens)
Assay: Partial agonist activity at human muscarinic M4 acetylcholine receptor expressed in CHO cells co-expressing Galpha16 assessed as calcium mobilization by FLIPR assay
Endpoint Label: pEC50
Give bare numbers, as −log10 of the molar value.

CCOC(=O)N1[C@@H]2CC[C@H]1C[C@H](CN1CC[C@@H](N3Cc4ccccc4NC3=O)C1)C2 has a reported pEC50 of 7.07

###

Molecular target: Cytochrome P450 3A4 (Homo sapiens)
Sequence (P08684 whole entry): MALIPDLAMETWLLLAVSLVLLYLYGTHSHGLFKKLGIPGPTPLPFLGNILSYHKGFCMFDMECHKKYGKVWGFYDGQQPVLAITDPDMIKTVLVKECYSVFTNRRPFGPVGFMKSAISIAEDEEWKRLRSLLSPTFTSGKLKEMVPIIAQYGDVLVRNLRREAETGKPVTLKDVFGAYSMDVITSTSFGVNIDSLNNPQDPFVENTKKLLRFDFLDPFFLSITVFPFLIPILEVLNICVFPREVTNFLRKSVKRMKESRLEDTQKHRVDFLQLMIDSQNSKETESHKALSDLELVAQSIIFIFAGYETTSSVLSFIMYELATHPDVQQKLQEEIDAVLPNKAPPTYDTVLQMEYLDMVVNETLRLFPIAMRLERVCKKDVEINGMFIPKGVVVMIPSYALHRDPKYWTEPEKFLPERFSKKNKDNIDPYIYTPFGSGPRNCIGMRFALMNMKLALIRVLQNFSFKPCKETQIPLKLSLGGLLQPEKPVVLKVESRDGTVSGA
pIC50: −log10 of the molar value.
Endpoint Label: pIC50

CCOC(=O)N1[C@@H]2CC[C@H]1C[C@H](CN1CC[C@@H](N3Cc4ccccc4NC3=O)C1)C2 has a reported pIC50 of < 5.70

###

Assay: Permeability of the compound at pH 7.4 by PAMPA method
Format: physicochemical
Details: read-out: permeability
Endpoint Label: Papp (×10⁻⁶ cm/s)
Give bare numbers, in ×10⁻⁶ cm/s.

CCOC(=O)N1[C@@H]2CC[C@H]1C[C@H](CN1CC[C@@H](N3Cc4ccccc4NC3=O)C1)C2 has a reported Papp of 53.8

###

Target: Muscarinic acetylcholine receptor M4 (Homo sapiens) (UniProt P08173)
Sequence (P08173 whole entry): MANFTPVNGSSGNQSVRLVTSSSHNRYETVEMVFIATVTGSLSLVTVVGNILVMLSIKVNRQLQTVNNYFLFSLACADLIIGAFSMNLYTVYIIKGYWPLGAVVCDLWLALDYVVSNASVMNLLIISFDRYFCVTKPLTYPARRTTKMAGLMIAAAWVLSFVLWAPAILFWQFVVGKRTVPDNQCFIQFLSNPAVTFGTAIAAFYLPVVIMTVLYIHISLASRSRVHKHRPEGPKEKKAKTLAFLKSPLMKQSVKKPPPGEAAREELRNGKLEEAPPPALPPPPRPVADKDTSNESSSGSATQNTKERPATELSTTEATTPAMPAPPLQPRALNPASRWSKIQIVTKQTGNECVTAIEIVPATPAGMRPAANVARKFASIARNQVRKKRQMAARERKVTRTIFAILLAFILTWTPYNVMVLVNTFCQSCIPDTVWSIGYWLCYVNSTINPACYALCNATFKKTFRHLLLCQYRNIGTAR
Assay: Partial agonist activity at human muscarinic M4 acetylcholine receptor expressed in CHO cells co-expressing Galpha16 assessed as calcium mobilization at 0.3 uM by FLIPR assay
Type: functional, cell-based
What Activity was measured for each of the following?
One number for each entry, in %.

Recorded results for 5 molecules are shown here.
1. CCOC(=O)N1[C@@H]2CC[C@H]1C[C@H](CN1CC(N3Cc4ccccc4NC3=O)C1)C2 = 64
2. CCOC(=O)N1CCC(CN2CC[C@@H](N3Cc4ccccc4NC3=O)C2)CC1 = 91
3. CCOC(=O)N1CCC(CN2CC[C@H](N3Cc4ccccc4NC3=O)C2)CC1 = 30
4. CCOC(=O)N1CCC(N2CCC(N3Cc4ccccc4NC3=O)CC2)CC1 = 114
5. CCOC(=O)N1[C@@H]2CC[C@H]1C[C@H](CN1CC[C@@H](N3Cc4ccccc4NC3=O)C1)C2 = 49

// batch mode: one Activity value per listed entry
1. CCOC(=O)N1CCC(CN2CCC(N3Cc4ccccc4NC3=O)CC2)CC1
2. CCOC(=O)N1CCC(CN2CC(N3Cc4ccccc4NC3=O)C2)CC1

Result:
1. 66
2. 115

###

Biological target: Muscarinic acetylcholine receptor M3 (Homo sapiens) (UniProt P20309)
Sequence (P20309 whole entry, looked up): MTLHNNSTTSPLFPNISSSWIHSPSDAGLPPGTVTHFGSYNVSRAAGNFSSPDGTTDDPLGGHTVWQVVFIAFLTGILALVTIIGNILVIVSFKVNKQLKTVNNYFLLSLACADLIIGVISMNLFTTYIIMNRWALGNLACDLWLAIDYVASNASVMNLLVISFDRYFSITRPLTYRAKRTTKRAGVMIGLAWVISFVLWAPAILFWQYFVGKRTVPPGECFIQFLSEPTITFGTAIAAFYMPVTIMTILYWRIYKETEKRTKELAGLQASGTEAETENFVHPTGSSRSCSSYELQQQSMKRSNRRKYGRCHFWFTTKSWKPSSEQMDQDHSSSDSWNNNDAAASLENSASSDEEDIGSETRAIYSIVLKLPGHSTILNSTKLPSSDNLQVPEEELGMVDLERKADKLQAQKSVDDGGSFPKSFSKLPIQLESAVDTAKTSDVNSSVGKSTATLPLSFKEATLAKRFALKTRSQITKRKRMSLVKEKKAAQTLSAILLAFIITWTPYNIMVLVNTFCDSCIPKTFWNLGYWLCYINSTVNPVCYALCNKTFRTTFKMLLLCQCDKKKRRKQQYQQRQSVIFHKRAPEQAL
Assay: Agonist activity at human muscarinic M3 acetylcholine receptor expressed in CHO cells assessed as calcium mobilization at 0.3 uM by FLIPR assay
Assay type: functional, cell-based
Criterion met if Activity is below 2%. Criterion not met if not; exact matches included in Criterion not met.

1. CCOC(=O)N1CCC(CN2CC[C@H](N3Cc4ccccc4NC3=O)C2)CC1 = Criterion not met
2. CCOC(=O)N1[C@@H]2CC[C@H]1C[C@H](CN1CC(N3Cc4ccccc4NC3=O)C1)C2 = Criterion met
3. CCOC(=O)N1CCC(N2CCC(N3Cc4ccccc4NC3=O)CC2)CC1 = Criterion not met
4. CCOC(=O)N1CCC(CN2CCC(N3Cc4ccccc4NC3=O)CC2)CC1 = Criterion not met

Would you kindly look at the next entry?
Query: Dear colleague, could you confirm whether Activity of CCOC(=O)N1CCC(CN2CC(N3Cc4ccccc4NC3=O)C2)CC1 falls below 2%? Thanks.
Result: Criterion met

###

Tested on: P-glycoprotein
Assay: Binding affinity to p-glycoprotein (unknown origin) assessed as efflux ratio by cell based assay
Type: ADME
Settings: human, not told
Endpoint Label: efflux ratio

CCOC(=O)N1[C@@H]2CC[C@H]1C[C@H](CN1CC[C@@H](N3Cc4ccccc4NC3=O)C1)C2 has a reported efflux ratio of 1

###

Molecular target: UniProt:P11229
Sequence (P11229 whole entry): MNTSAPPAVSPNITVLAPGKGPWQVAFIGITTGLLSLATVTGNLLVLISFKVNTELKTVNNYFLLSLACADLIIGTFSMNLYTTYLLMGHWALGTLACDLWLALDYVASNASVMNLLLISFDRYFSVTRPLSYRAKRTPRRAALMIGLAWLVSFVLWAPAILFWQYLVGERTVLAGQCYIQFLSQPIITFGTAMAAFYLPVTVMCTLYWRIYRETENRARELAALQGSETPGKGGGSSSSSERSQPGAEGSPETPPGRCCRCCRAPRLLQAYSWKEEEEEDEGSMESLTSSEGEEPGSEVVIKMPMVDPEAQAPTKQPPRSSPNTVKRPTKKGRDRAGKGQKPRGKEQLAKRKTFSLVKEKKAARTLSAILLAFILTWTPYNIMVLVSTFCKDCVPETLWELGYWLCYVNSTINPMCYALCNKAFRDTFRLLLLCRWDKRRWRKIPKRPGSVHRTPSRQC
Test: Agonist activity at human muscarinic M1 acetylcholine receptor expressed in CHO cells assessed as calcium mobilization by FLIPR assay
Endpoint Label: EC50 (µM)
Numbers only, in µM.

Simply: CCOC(=O)N1[C@@H]2CC[C@H]1C[C@H](CN1CC[C@@H](N3Cc4ccccc4NC3=O)C1)C2 , UniProt:P11229, EC50 = 0.014
